FYI, the data here is from patent US20090191187A1.

- experimental_system: T1, human interleukin-1 receptor on cells (MRC-5 human embryonic lung fibroblasts; human blood cells) (human, UniProt P14778 18-569)
- T1 sequence (looked up): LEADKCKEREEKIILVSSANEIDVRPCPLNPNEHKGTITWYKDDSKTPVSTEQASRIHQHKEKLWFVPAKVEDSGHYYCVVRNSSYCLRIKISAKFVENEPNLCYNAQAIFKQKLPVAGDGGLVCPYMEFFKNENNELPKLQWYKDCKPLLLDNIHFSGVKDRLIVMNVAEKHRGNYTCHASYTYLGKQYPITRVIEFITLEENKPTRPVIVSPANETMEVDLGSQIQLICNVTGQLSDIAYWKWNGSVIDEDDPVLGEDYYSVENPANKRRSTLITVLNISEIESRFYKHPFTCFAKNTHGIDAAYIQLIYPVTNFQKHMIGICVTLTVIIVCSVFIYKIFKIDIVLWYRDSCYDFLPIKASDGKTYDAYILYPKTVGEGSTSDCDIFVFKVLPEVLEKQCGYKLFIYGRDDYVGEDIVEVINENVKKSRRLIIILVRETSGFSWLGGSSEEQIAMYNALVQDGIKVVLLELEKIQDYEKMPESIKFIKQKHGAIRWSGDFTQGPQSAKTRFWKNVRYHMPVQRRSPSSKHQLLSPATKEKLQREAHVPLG
- test_method_notes: cell-based or functional assay
quantity_name: Bioassay (IC50 in relation to 2D8), Mean

Take a look at these entries with their results.
HUM2/3 (antibody, V domains shown, also called combination of HUR HuVH v2 and HUR HuVK v3) VH: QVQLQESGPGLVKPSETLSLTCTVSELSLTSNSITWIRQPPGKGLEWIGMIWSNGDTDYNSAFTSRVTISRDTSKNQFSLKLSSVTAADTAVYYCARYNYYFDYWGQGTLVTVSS VL: EIVLTQSPATLSLSPGERATISCKASQNVDNRGVSYVHWYQQKPGQQPKLLIYKGSNLAFGVPARFSGSGSRTDFTLTISSLEPEDFATYYCQQSKGHPDTFGQGTKVEIK: 1.2 relative to 2D8
DEI4/5 (antibody, V domains shown, also called combination of HURDIVHv4 and HURDIVKv5) VH: QLQLQESGPGLVKPSQTLSLTCTVSGLSLTSNSITWIRQPPGKGPEWMGMIWSNGDTDYNSAFTSRFTISRDNSKNTLYLQMNSLKTEDTAVYYCARYNYYFDYWGQGTLVTVSS VL: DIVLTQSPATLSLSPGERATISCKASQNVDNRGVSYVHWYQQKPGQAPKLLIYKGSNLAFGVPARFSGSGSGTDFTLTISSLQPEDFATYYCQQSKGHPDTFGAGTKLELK: 3 relative to 2D8
DEI1/8 (antibody, V domains shown) VH: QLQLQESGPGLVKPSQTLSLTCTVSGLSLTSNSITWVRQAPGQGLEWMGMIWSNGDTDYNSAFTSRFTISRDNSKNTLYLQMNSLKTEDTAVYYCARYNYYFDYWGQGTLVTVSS VL: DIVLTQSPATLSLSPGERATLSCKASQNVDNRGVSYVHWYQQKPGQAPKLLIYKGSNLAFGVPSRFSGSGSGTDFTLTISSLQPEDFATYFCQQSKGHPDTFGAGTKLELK: 2 relative to 2D8
DEI5/5 (antibody, V domains shown, also called combination of HURDIVHv5 and HURDIVKv5) VH: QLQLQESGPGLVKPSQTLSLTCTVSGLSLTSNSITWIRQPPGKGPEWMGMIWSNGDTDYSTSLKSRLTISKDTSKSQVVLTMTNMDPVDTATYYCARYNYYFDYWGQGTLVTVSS VL: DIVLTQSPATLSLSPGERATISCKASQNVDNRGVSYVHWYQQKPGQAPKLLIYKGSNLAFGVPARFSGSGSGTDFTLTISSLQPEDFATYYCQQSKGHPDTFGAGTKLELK: 4.6 relative to 2D8
DEI4/9 (antibody, V domains shown) VH: QLQLQESGPGLVKPSQTLSLTCTVSGLSLTSNSITWIRQPPGKGPEWMGMIWSNGDTDYNSAFTSRFTISRDNSKNTLYLQMNSLKTEDTAVYYCARYNYYFDYWGQGTLVTVSS VL: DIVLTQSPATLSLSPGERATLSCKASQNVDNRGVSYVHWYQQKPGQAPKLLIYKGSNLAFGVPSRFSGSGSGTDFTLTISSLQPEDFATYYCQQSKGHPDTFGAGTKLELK: 4.7 relative to 2D8
HUM2/2 (antibody, V domains shown, Humanized variant of 2D8) VH: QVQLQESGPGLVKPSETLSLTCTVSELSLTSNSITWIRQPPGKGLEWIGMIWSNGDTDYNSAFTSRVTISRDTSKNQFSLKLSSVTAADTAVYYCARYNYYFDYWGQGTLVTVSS VL: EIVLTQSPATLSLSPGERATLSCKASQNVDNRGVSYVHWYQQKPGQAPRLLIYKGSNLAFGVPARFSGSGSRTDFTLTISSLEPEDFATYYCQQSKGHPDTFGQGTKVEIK: 1 relative to 2D8
DEI5/4 (antibody, V domains shown) VH: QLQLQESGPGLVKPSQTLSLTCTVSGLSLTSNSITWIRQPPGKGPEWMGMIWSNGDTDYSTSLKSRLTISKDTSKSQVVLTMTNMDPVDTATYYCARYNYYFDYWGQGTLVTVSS VL: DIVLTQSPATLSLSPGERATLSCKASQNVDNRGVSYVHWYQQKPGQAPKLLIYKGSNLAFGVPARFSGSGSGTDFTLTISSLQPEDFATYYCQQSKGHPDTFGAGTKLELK: 2.5 relative to 2D8
DEI5/7 (antibody, V domains shown) VH: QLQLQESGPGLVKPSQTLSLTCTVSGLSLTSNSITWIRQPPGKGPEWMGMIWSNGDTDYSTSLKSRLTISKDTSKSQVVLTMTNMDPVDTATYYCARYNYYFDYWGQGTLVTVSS VL: DIVLTQSPATLSLSPGERATLSCKASQNVDNRGVSYVHWYQQKPGQAPKLLIYKGSNLAFGVPARFSGSGSGTDFTLTISSLQPEDFATYFCQQSKGHPDTFGAGTKLELK: 2.3 relative to 2D8
DEI2/8 (antibody, V domains shown, also called combination of HURDIVHv2 and HURDIVKv8) VH: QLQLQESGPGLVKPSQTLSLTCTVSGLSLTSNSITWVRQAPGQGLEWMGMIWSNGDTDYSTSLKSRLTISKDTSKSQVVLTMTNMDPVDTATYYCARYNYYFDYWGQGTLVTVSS VL: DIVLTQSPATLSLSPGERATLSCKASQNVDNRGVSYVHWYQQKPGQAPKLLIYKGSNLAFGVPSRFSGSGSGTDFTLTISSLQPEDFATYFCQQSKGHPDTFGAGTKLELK: 2.4 relative to 2D8
DEI2/4 (antibody, V domains shown, also called combination of HURDIVHv2 and HURDIVKv4) VH: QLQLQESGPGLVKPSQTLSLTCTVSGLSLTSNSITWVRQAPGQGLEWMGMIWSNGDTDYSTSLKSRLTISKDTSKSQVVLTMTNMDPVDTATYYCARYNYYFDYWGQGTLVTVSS VL: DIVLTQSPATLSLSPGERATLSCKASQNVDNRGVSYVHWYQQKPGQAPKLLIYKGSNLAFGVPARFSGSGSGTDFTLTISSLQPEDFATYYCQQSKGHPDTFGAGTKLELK: 2.3 relative to 2D8

// switching to the query binder
Look up Bioassay (IC50 in relation to 2D8), Mean: DEI2/9 (antibody, V domains shown, also called combination of HURDIVHv2 and HURDIVKv9) VH: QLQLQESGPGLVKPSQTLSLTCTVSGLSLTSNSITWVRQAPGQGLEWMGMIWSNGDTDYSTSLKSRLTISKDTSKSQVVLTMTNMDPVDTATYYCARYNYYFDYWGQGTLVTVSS VL: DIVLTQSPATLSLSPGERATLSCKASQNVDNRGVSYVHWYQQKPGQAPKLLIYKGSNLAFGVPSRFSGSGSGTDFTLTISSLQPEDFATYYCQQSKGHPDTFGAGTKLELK
2.8 relative to 2D8
